Each entry below lists one item and its recorded cell viability value.
- System: P12-Ichikawa
- METHOD SUMMARY: cell viability relative to DMSO control; higher = less cytotoxic
- EXPERIMENTAL CONDITIONS: HPLM + 10% dialyzed FBS; 48 h; 0.19 µM
State just the number; it will be interpreted in %.

These solved cases illustrate the format of a correct answer.
{"MOLECULE": "O=C(NC1CCOCC1)c1ccc(-c2cc(-c3c[nH]nc3-c3ccccn3)ccn2)cc1", "MEASUREMENT TARGET": "P12-Ichikawa", "cell viability, %": 108}
{"MOLECULE": "CSC1=CC(=CC=C1)NC2=NC3=C(C=N2)/C=C(C(=O)N3C)/C4=C(Cl)C=CC=C4Cl", "MEASUREMENT TARGET": "P12-Ichikawa", "cell viability, %": 110}
{"MOLECULE": "CN(N=O)C(=O)N[C@H]1C(O)OC(CO)[C@@H](O)[C@@H]1O (stereo partly drawn)", "MEASUREMENT TARGET": "P12-Ichikawa", "cell viability, %": 81.9}
{"MOLECULE": "COc1nc(-c2ccc3c(c2)OCO3)n(-c2ccc(NC(=O)CSc3ccccc3)cc2)n1", "MEASUREMENT TARGET": "P12-Ichikawa", "cell viability, %": 110}
{"MOLECULE": "CO/N=C(/C(=O)N[C@@H]1C(=O)N2C(C(=O)O)=C(Cn3ccc(=N)n3CCO)CS[C@H]12)c1csc(N)n1", "MEASUREMENT TARGET": "P12-Ichikawa", "cell viability, %": 126}
{"MOLECULE": "C[N]1C=NC=C1[C@@](N)(C2=CC=C(Cl)C=C2)C3=CC=C4N(C)C(=O)\\C=C(\\C5=CC=CC(=C5)Cl)C4=C3", "MEASUREMENT TARGET": "P12-Ichikawa", "cell viability, %": 97.4}
{"MOLECULE": "CCC(=O)O[C@@]1([C@@H](C)C[C@H]2[C@@H]3CCC/4=C/C(=O)/C=C\\[C@]4(C)[C@@]3(F)[C@@H](O)C[C@]12C)C(=O)CCl", "MEASUREMENT TARGET": "P12-Ichikawa", "cell viability, %": 73}

# next molecule below
Data request: Find the recorded cell viability belonging to O=C(O)c1ccc2cc(-c3ccc(O)c(C45CC6CC(CC(C6)C4)C5)c3)ccc2c1 and report it.
Data returned: 107
